measured-target: human DR5 (human)
assay-overview: ELISA: human DR5 coated on the plate (10 ng/ml), antibody titrated, anti-human Fc-HRP, TMB, absorbance at 450 nm
quantity-kind: EC50 (read off the curve) (µg/mL)
Unit µg/mL implied. Number only.

For orientation, consider the following solved cases.
[
  {
    "binder": "DA15 (antibody, V domains shown) VH: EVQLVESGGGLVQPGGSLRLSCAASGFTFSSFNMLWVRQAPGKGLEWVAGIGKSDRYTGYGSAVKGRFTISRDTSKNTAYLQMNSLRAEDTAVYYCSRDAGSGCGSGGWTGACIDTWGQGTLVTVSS VL: DIQMTQSPSSLSASVGDRVTITCSGGDSYAGSYYYGWYQQKPGKAPKTLIYNNNNRPSGVPSRFSGSRSGTDFTLTISSLQPEDFATYYCGSRDSDGGGRFGQGTKVEIK",
    "quantity-kind": "EC50 (read off the curve)",
    "unit-annotation": "µg/mL",
    "measurement": 0.01
  },
  {
    "binder": "DA5 (antibody, V domains shown) VH: EVQLVESGGGLVQPGGSLRLSCAASGFTFSSFNMLWVRQAPGKGLEWVAGIGKSDRYTGYGSAVKGRFTISRDDSKSTAYLQMNSLRAEDTAVYYCVRDAGSGCGSGGWTGACIDTWGQGTLVTVSS VL: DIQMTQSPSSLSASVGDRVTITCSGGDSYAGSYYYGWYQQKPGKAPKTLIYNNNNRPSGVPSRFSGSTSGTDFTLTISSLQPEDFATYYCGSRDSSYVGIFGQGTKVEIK",
    "quantity-kind": "EC50 (read off the curve)",
    "unit-annotation": "µg/mL",
    "measurement": 0.03
  }
]

Please turn your attention to the following entry.
Task: Kindly indicate its recorded EC50 (read off the curve). Item: DA30 (antibody, V domains shown) VH: AVTLDESGGGLQTPGGGLSLVCKGSGFTFSSFNMLWVRQAPGKGLEWVAGIGKSDRYTGYGSAVKGRATISRDDGQSTAYLQMNSLRAEDTGTYYCVKDAGSGCGSGGWTGACIDTWGHGTEVIVSS VL: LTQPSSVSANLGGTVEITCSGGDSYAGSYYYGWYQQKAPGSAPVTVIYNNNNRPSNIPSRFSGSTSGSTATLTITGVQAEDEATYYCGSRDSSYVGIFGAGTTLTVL
Result: 0.02
